Tested on: Escherichia coli TOP10
Experiment: shrunken log2 fold change of peptide-encoding DNA abundance (4.5 h post-induction vs induction); higher = less antimicrobial activity (less host growth inhibition)
Settings: time post-induction: 4.5 h; library: site-saturation at positions 5, 18, 19, 20
Give shrunken log2 fold change for every item shown.

Any idea what shrunken log2 fold change was measured for `RRIRQRPPRLPRPRPRPNFPPRP` ?
-0.00205

Ok, now `RRIRIRPPRLPRPRPRPNAEPRP`
-0.151

Ok, now `RRIRQRPPRLPRPRPRPVGSPRP`
0.317

Ok, now `RRIRSRPPRLPRPRPRPLRMPRP`
0.0358

Ok, now `RRIRKRPPRLPRPRPRPQPAPRP`
0.783

Ok, now `RRIRWRPPRLPRPRPRPNAGPRP`
-0.00207

Ok, now `RRIRERPPRLPRPRPRPSIGPRP`
-0.406

Ok, now `RRIRQRPPRLPRPRPRPQVIPRP`
-0.0697

---

System: Escherichia coli TOP10
Experiment: shrunken log2 fold change of peptide-encoding DNA abundance (4.5 h post-induction vs induction); higher = less antimicrobial activity (less host growth inhibition)
Conditions: time post-induction: 4.5 h; library: site-saturation at positions 5, 18, 19, 20
assayMetric: shrunken log2 fold change
Answer field: number only, no words.

// map `RRIRVRPPRLPRPRPRPNIQPRP` to recorded shrunken log2 fold change (system: Escherichia coli TOP10)
-0.121

Ok, now `RRIRERPPRLPRPRPRPEGGPRP`
0.361

Ok, now `RRIRQRPPRLPRPRPRPQGKPRP`
-0.0747

Ok, now `RRIRGRPPRLPRPRPRPFMYPRP`
0.345

Ok, now `RRIRYRPPRLPRPRPRPVLVPRP`
-0.507

Ok, now `RRIRLRPPRLPRPRPRPGSGPRP`
0.337

Ok, now `RRIRDRPPRLPRPRPRPTSCPRP`
0.037

Ok, now `RRIRDRPPRLPRPRPRPSGRPRP`
0.124

Ok, now `RRIRPRPPRLPRPRPRPKCFPRP`
0.434

Ok, now `RRIRARPPRLPRPRPRPIDRPRP`
-0.027

---

Test system: Escherichia coli TOP10
Experiment: shrunken log2 fold change of peptide-encoding DNA abundance (4.5 h post-induction vs induction); higher = less antimicrobial activity (less host growth inhibition)
Conditions: time post-induction: 4.5 h; library: site-saturation at positions 5, 18, 19, 20
Give shrunken log2 fold change for every item shown.
Answer field: number only, no words.

Any idea what shrunken log2 fold change was measured for `RRIRIRPPRLPRPRPRPGRQPRP` ?
0.172

Ok, now `RRIRWRPPRLPRPRPRPDYFPRP`
-0.0991

Ok, now `RRIRDRPPRLPRPRPRPVILPRP`
-0.146

Ok, now `RRIRWRPPRLPRPRPRPNWRPRP`
0.184

Ok, now `RRIRPRPPRLPRPRPRPILWPRP`
0.0824

Ok, now `RRIRDRPPRLPRPRPRPIDAPRP`
-0.264

Ok, now `RRIRHRPPRLPRPRPRPLLHPRP`
-0.238

Ok, now `RRIRRRPPRLPRPRPRPIALPRP`
0.0331

Ok, now `RRIRVRPPRLPRPRPRPMCFPRP`
-0.178

Ok, now `RRIRRRPPRLPRPRPRPQKDPRP`
-0.151

Ok, now `RRIRRRPPRLPRPRPRPLYPPRP`
-0.0452

Ok, now `RRIRGRPPRLPRPRPRPCKEPRP`
-0.0407

Ok, now `RRIRDRPPRLPRPRPRPGVCPRP`
0.358

Ok, now `RRIRLRPPRLPRPRPRPMLYPRP`
-0.232

---

Tested on: Escherichia coli TOP10
Test: shrunken log2 fold change of peptide-encoding DNA abundance (4.5 h post-induction vs induction); higher = less antimicrobial activity (less host growth inhibition)
Settings: time post-induction: 4.5 h; library: site-saturation at positions 5, 18, 19, 20
Give shrunken log2 fold change for every item shown.
Answer field: number only, no words.

Any idea what shrunken log2 fold change was measured for `RRIRFRPPRLPRPRPRPRYCPRP` ?
-0.647

Ok, now `RRIRQRPPRLPRPRPRPYFRPRP`
-0.368

Ok, now `RRIRARPPRLPRPRPRPRIRPRP`
0.322

---

Give shrunken log2 fold change for every item shown.
Tested on: Escherichia coli TOP10
Assay: shrunken log2 fold change of peptide-encoding DNA abundance (4.5 h post-induction vs induction); higher = less antimicrobial activity (less host growth inhibition)
Conditions: time post-induction: 4.5 h; library: site-saturation at positions 5, 18, 19, 20
Answer field: number only, no words.

Any idea what shrunken log2 fold change was measured for `RRIRTRPPRLPRPRPRPGCVPRP` ?
0.0396

Ok, now `RRIRIRPPRLPRPRPRPDTYPRP`
-0.347

Ok, now `RRIRWRPPRLPRPRPRPQETPRP`
-0.00116

Ok, now `RRIRPRPPRLPRPRPRPEFRPRP`
-0.00133

Ok, now `RRIRMRPPRLPRPRPRPGGSPRP`
1.07

Ok, now `RRIRIRPPRLPRPRPRPSNFPRP`
-0.335

Ok, now `RRIRGRPPRLPRPRPRPQNKPRP`
0.0435

Ok, now `RRIRMRPPRLPRPRPRPRWQPRP`
0.146

Ok, now `RRIRRRPPRLPRPRPRPDANPRP`
0.555

Ok, now `RRIRVRPPRLPRPRPRPGYIPRP`
-0.608

---

Give shrunken log2 fold change for every item shown.
Test system: Escherichia coli TOP10
Assay: shrunken log2 fold change of peptide-encoding DNA abundance (4.5 h post-induction vs induction); higher = less antimicrobial activity (less host growth inhibition)
Details: time post-induction: 4.5 h; library: site-saturation at positions 5, 18, 19, 20
Answer field: number only, no words.

Any idea what shrunken log2 fold change was measured for `RRIRFRPPRLPRPRPRPGDVPRP` ?
-0.014

Ok, now `RRIRIRPPRLPRPRPRPCGIPRP`
-0.222

Ok, now `RRIRERPPRLPRPRPRPWCFPRP`
-0.161

Ok, now `RRIRWRPPRLPRPRPRPNDLPRP`
0.0302

Ok, now `RRIRVRPPRLPRPRPRPFVQPRP`
-0.0696

Ok, now `RRIRPRPPRLPRPRPRPWWVPRP`
0.0961

Ok, now `RRIRTRPPRLPRPRPRPLTPPRP`
-0.0473

Ok, now `RRIRARPPRLPRPRPRPRKFPRP`
0.421

Ok, now `RRIRYRPPRLPRPRPRPQQKPRP`
0.0376

Ok, now `RRIRWRPPRLPRPRPRPVGLPRP`
0.568

Ok, now `RRIRMRPPRLPRPRPRPYCSPRP`
-0.122

Ok, now `RRIRTRPPRLPRPRPRPSNTPRP`
-0.732

Ok, now `RRIRTRPPRLPRPRPRPIGHPRP`
-0.111

---

Test system: Escherichia coli TOP10;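 note: peptides expressed intracellularly from a pBAD plasmid library in pooled LB shake-flask culture, induced with 0.3% L-arabinose, DNA abundance read by NGS, three biological replicates, DESeq2 with apeglm shrinkage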
Assay: shrunken log2 fold change of peptide-encoding DNA abundance (4.5 h post-induction vs induction); higher = less antimicrobial activity (less host growth inhibition)
Settings: time post-induction: 4.5 h; library: site-saturation at positions 5, 18, 19, 20
assayMetric: shrunken log2 fold change
Answer field: number only, no words.

Any idea what shrunken log2 fold change was measured for `RRIRNRPPRLPRPRPRPHVAPRP` ?
-0.0498

Ok, now `RRIRTRPPRLPRPRPRPMPWPRP`
0.253

Ok, now `RRIRIRPPRLPRPRPRPAAGPRP`
0.0506

Ok, now `RRIRVRPPRLPRPRPRPENSPRP`
-0.522

Ok, now `RRIRFRPPRLPRPRPRPSPNPRP`
-0.399

Ok, now `RRIRARPPRLPRPRPRPMEAPRP`
-0.047

Ok, now `RRIRSRPPRLPRPRPRPTQTPRP`
1.09

Ok, now `RRIRNRPPRLPRPRPRPKIKPRP`
-0.256

Ok, now `RRIRTRPPRLPRPRPRPMHWPRP`
0.209

Ok, now `RRIRRRPPRLPRPRPRPDWGPRP`
0.157

Ok, now `RRIRPRPPRLPRPRPRPCMAPRP`
-0.151

Ok, now `RRIRCRPPRLPRPRPRPGLCPRP`
0.291

Ok, now `RRIRSRPPRLPRPRPRPVHDPRP`
-0.0657

Ok, now `RRIRSRPPRLPRPRPRPEIKPRP`
0.104

Ok, now `RRIRARPPRLPRPRPRPYQYPRP`
-0.352

Ok, now `RRIRPRPPRLPRPRPRPPMHPRP`
0.359

Ok, now `RRIRTRPPRLPRPRPRPLGYPRP`
-0.213

Ok, now `RRIRTRPPRLPRPRPRPWCIPRP`
-0.19

Ok, now `RRIRWRPPRLPRPRPRPCQFPRP`
-0.00192

Ok, now `RRIRVRPPRLPRPRPRPQVKPRP`
-0.016

Ok, now `RRIRSRPPRLPRPRPRPFLLPRP`
-0.411

Ok, now `RRIRNRPPRLPRPRPRPMAYPRP`
-0.161

Ok, now `RRIRWRPPRLPRPRPRPVLVPRP`
0.298

Ok, now `RRIRDRPPRLPRPRPRPFTEPRP`
-0.165

Ok, now `RRIRQRPPRLPRPRPRPVADPRP`
0.0976

Ok, now `RRIRYRPPRLPRPRPRPYVFPRP`
-0.0427

Ok, now `RRIRHRPPRLPRPRPRPNCKPRP`
-0.211

Ok, now `RRIRFRPPRLPRPRPRPHTSPRP`
-0.907

Ok, now `RRIRCRPPRLPRPRPRPHCPPRP`
-0.508

Ok, now `RRIRERPPRLPRPRPRPEPPPRP`
0.595

Ok, now `RRIRPRPPRLPRPRPRPHMRPRP`
0.0614
